- TEST METHOD NOTES: Aqueous solubility of parent compound and sodium salt
- TEST PARAMETERS: aqueous medium (not further specified)
Classify by measured solubility: Met if it is equal to or exceeds 0.5 µg/mL, Not met if it is smaller.

1) CC1c2cc(-c3ccc(/C=C4/NC(=S)NC4=O)s3)ccc2C(=O)N1C (stereo not shown)    Met
2) O=C1NC(=O)/C(=C\c2ccc(-c3ccc4c(c3)CNC4=O)s2)N1    Met
3) O=C1NC(=S)N/C1=C/c1ccc(-c2ccc3c(c2)CN(CCO)C3=O)s1    Met
4) O=C1NC(=S)N/C1=C/c1ccc(-c2ccc3c(c2)CNC3=O)cn1    Met
5) O=C1NC(=S)N/C1=C/c1ccc(-c2ccc3c(c2)COC3=O)s1    Met
6) CCOC(=O)N1Cc2cc(-c3ccc(/C=C4/NC(=S)NC4=O)s3)ccc2C1=O    Not met
7) O=C1NC(=S)N/C1=C/c1ccc(-c2ccc3c(c2)CN(CCCO)C3=O)s1    Met
8) CN1Cc2cc(-c3ccc(/C=C4/NC(=S)NC4=O)s3)ccc2C1=O    Not met
9) O=C1NC(=S)N/C1=C/c1ccc(-c2ccc3c(c2)C(=O)NCC3)s1    Not met
10) O=C1NC(=S)N/C1=C/c1ccc(-c2ccc3c(c2)CNC3=O)s1    Met

---

- TARGET OR TEST SYSTEM: purified recombinant perforin (Mus musculus, UniProt P10820)
- Sequence (P10820 21-554): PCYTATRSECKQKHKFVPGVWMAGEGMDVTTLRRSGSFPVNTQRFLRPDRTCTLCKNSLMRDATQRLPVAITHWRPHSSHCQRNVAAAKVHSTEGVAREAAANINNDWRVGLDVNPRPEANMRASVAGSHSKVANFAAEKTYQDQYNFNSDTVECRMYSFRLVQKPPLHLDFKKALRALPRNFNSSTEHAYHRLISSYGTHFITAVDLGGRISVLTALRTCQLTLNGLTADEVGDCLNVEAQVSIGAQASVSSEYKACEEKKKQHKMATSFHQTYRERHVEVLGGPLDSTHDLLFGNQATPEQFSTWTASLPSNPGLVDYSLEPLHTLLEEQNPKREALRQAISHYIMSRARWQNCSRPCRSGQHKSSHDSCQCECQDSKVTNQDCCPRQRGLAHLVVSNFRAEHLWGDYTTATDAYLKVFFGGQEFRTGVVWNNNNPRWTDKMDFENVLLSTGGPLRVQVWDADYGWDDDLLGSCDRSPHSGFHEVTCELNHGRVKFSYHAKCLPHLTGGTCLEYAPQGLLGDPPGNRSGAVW
- TEST METHOD NOTES: cell-based
- TEST PARAMETERS: lysis of Jurkat cells by purified recombinant perforin, 51Cr release, 0.1% BSA; average of at least three determinations; read-out: inhibition of Jurkat cell lysis, IC50
Reported log10 IC50 by item:
MEASURED PROPERTY: log10 IC50 (log10 of the value in nM)

1. CC(=O)OCCN1Cc2cc(-c3ccc(/C=C4/NC(=S)NC4=O)s3)ccc2C1=O    3.07
2. O=C1NC(=S)N/C1=C/c1ccc(-c2ccncc2)s1    4.00
3. O=C1NC(=S)N/C1=C/c1ccc(-c2ccc(C(=O)NCCCN3CCOCC3)cc2)s1    3.91
4. O=C1NC(=S)N/C1=C/c1ccc(-c2ccc3c(c2)COC3=O)s1    2.89
5. O=C1NC(=O)/C(=C\c2ccc(-c3ccc4c(c3)CNC4=O)s2)N1    2.60
6. CCOC(=O)N1Cc2cc(-c3ccc(/C=C4/NC(=S)NC4=O)s3)ccc2C1=O    2.74
7. CS(=O)(=O)Nc1ccc(-c2ccc(/C=C3/NC(=S)NC3=O)s2)cc1    3.89
8. O=C1NC(=S)N/C1=C/c1cc2ccc(-c3ccc4c(c3)CNC4=O)cc2[nH]1    3.20
9. CCCCN1Cc2cc(-c3ccc(/C=C4/NC(=S)NC4=O)s3)ccc2C1=O    3.07
10. CC(=O)c1ccc(-c2ccc(/C=C3/NC(=S)NC3=O)s2)cc1    3.22
11. O=C1NC(=S)N/C1=C/c1ccc(-c2ccc3c(c2)CN(CCCN2CCCCC2)C3=O)s1    4.07
12. O=C1NC(=S)N/C1=C/c1ccc(-c2ccc(C(F)(F)F)cc2)s1    3.67
